- System: Saccharomyces cerevisiae
- method-summary: protein stability index of tFT-peptide fusion (C-terminal peptide) (PSI (0-1 scale)); higher = more stable (slower turnover)
- assay-conditions: genetic background: wild type; temperature: 30 C
experimental-endpoint: protein stability index
Lab note: write the figure by itself, no unit.

# count of solved cases: 3
primary-sequence: VGAFEGDWGVRH
study-system: Saccharomyces cerevisiae
protein stability index: 0.671
//
primary-sequence: VGTFGAGGYAPD
study-system: Saccharomyces cerevisiae
protein stability index: 0.646
//
primary-sequence: DRRRVIIKENKA
study-system: Saccharomyces cerevisiae
protein stability index: 0.675

What reported protein stability index corresponds to LHRLRLASRAAL on Saccharomyces cerevisiae? 0.719

Further, for NLARPTRTFAGV ? 0.684

Try this sequence next: GGVGGPGLDGWK 0.676

Query DGGRGQGMLGGS next 0.662

What about PHPATSPVARPP ? 0.678

Let us now turn to LRIAKSGVGGFA 0.636

Please give the result for WVVVLFAYRGLR too. 0.458

* * *

- Test system: Saccharomyces cerevisiae
- method-summary: protein stability index of tFT-peptide fusion (C-terminal peptide) (PSI (0-1 scale)); higher = more stable (slower turnover)
- assay-conditions: genetic background: wild type; temperature: 37 C
# binarize protein stability index: threshold 0.3 inclusive, high side Criterion met, low side Criterion not met

primary-sequence: FFLLFCASFLRC
class-name: Criterion met
--
primary-sequence: VTSVARVVLHLL
class-name: Criterion not met
--
primary-sequence: FHICTQLIFITC
class-name: Criterion not met
--
primary-sequence: WFGCSTVWVRVQ
class-name: Criterion not met

Item GCDVWCLVLRMG with protein stability index of 0.3 or above? Criterion met

Would you kindly repeat that for LWFFVVVVVRWV ? Criterion not met

Proceed to APPHPPPATFLS Criterion met

What do we get for FLPHLMCVFSFC ? Criterion met

* * *

- Tested on: Saccharomyces cerevisiae
- method-summary: protein stability index of tFT-peptide fusion (C-terminal peptide) (PSI (0-1 scale)); higher = more stable (slower turnover)
- assay-conditions: genetic background: wild type; temperature: 30 C
experimental-endpoint: protein stability index
Reply with just the number.

primary-sequence: YCGGRWGGWEIG
study-system: Saccharomyces cerevisiae
protein stability index: 0.684
--
primary-sequence: PPPLLAPHPPPP
study-system: Saccharomyces cerevisiae
protein stability index: 0.697

State the recorded protein stability index for this entry: SGSGCSDRRPSR 0.699

* * *

Here the recorded protein stability index is given for each entry.
- Test system: Saccharomyces cerevisiae
- method-summary: protein stability index of tFT-peptide fusion (C-terminal peptide) (PSI (0-1 scale)); higher = more stable (slower turnover)
- assay-conditions: genetic background: wild type; temperature: 30 C
Write the number on its own, no unit after it.

primary-sequence: LMRFFSCTLSFE
study-system: Saccharomyces cerevisiae
protein stability index: 0.625
--
primary-sequence: GDMKCVTRDSFI
study-system: Saccharomyces cerevisiae
protein stability index: 0.638
--
primary-sequence: TCLGYKLHPARG
study-system: Saccharomyces cerevisiae
protein stability index: 0.718

# protein stability index lookup, item LLRLLYVGVVGR 0.573

And the next one, PPPPPSLACPPP ? 0.688

* * *

- Test system: Saccharomyces cerevisiae
- method-summary: protein stability index of tFT-peptide fusion (C-terminal peptide) (PSI (0-1 scale)); higher = more stable (slower turnover)
- assay-conditions: genetic background: wild type; temperature: 30 C
Respond with label 1 for protein stability index values of 0.7 and above, label 0 for values below.

Worked set:
primary-sequence: CDLISPAHLVLG
class-name: label 0
//
primary-sequence: LCPWRYAVLFSP
class-name: label 0
//
primary-sequence: RRVYGRELHPSQ
class-name: label 1
//
primary-sequence: NLFDHIHRSTPS
class-name: label 1
//
primary-sequence: SPPPAPSHPPSP
class-name: label 1
//
primary-sequence: RRDLKNVRLPDR
class-name: label 0

Test whether the sequence LCRFPSSPQLPS records protein stability index of 0.7 or higher. label 1

Would you kindly repeat that for PDGTGPLCAPEP ? label 0

Item: GGWHVVGGAGVG label 0

For APPPPSLPVPST then? label 1

Continue with LVQPHGSRFGLA label 0

Next entry: PPFLDLSLPHIC label 0

Would you kindly repeat that for VGTQIGLWVAQV ? label 0

Also WFIPRSVCRWLF , if possible. label 0

Can you check TTGLLPSAYIWS next? label 1

Another: CPGLCVFFSPDY label 0

Thanks! And PPRSLPPSPPSP ? label 1

Item: FAHSPPPHLSVR label 0

Subsequent entry: SVRDRCKENERF label 0

What about GVWVRGTRRGWG ? label 1

* * *

- Test system: Saccharomyces cerevisiae
- method-summary: protein stability index of tFT-peptide fusion (C-terminal peptide) (PSI (0-1 scale)); higher = more stable (slower turnover)
- assay-conditions: genetic background: cdc34-1; temperature: 37 C
Criterion: protein stability index meeting or surpassing 0.5. Met: 1. Not met: 0.

Study these solved cases before continuing.
primary-sequence: WFFLFGFVFFFR
study-system: Saccharomyces cerevisiae
class-name: 0
--
primary-sequence: CVIVCVLVWGRA
study-system: Saccharomyces cerevisiae
class-name: 0
--
primary-sequence: VLWSCCGGVRVR
study-system: Saccharomyces cerevisiae
class-name: 1
--
primary-sequence: LVLSVWFFNCTS
study-system: Saccharomyces cerevisiae
class-name: 0
--
primary-sequence: EVFLARKRSMVV
study-system: Saccharomyces cerevisiae
class-name: 1

Tell me whether protein stability index is at least 0.5 here: IIAGVWFLEILG 0

Next sequence up: YCDPSLIWLYLM 1

And the next one, LLCGVLFFFWVV ? 0

* * *

Quick reference: protein stability index of the listed items.
- Tested on: Saccharomyces cerevisiae
- method-summary: protein stability index of tFT-peptide fusion (C-terminal peptide) (PSI (0-1 scale)); higher = more stable (slower turnover)
- assay-conditions: genetic background: wild type; temperature: 30 C

primary-sequence: IRRRQKYPKKKS
protein stability index: 0.68

Now consider a different sequence.
What reported protein stability index corresponds to HSSPHFTTTKTP on Saccharomyces cerevisiae? 0.708

* * *

- System: Saccharomyces cerevisiae
- method-summary: protein stability index of tFT-peptide fusion (C-terminal peptide) (PSI (0-1 scale)); higher = more stable (slower turnover)
- assay-conditions: genetic background: wild type; temperature: 30 C
This section presents sequences with their documented protein stability index values.
Would you mind answering with just the numeric figure?

primary-sequence: EGLDVRILIQVI
protein stability index: 0.164
//
primary-sequence: LSTFFIFLRILR
protein stability index: 0.342

I have this sequence here, WFFLFGFVFFFR , and I need its recorded protein stability index. 0.351

Proceed to YVGILCTGILTV 0.41

And then PFFVFSFLFLLH , what is it? 0.15

Then SGLVAFSVCCRG ? 0.308

Now consider LFFFLVWSLSVF and answer again. 0.0205

* * *

- Test system: Saccharomyces cerevisiae
- method-summary: protein stability index of tFT-peptide fusion (C-terminal peptide) (PSI (0-1 scale)); higher = more stable (slower turnover)
- assay-conditions: genetic background: das1 deletion; temperature: 30 C
Param threshold (0.7) applies to protein stability index; output t when value >= threshold, f when value < threshold.

Solved entries:
primary-sequence: KKIIKKKDFYHR [YOR011W-A C-terminal 12 aa]
class-name: t
//
primary-sequence: LDNILADLELDV [YIL001W C-terminal 12 aa]
class-name: t
//
primary-sequence: HVCVDVDVIVST [TRM12 C-terminal 12 aa]
class-name: f
//
primary-sequence: GKKGQHVGCCVC [YFL066C C-terminal 12 aa]
class-name: t
//
primary-sequence: NGWHELALPQSR [SWM1 C-terminal 12 aa]
class-name: t

Please indicate if the recorded protein stability index for THENIHQKFVQF [SFB3 C-terminal 12 aa] meets or exceeds 0.7. t

What about this sequence? AATNNLFIFSAL [CDC55 C-terminal 12 aa] t

Another sequence to look at: TPKYVESDEDDQ [TOF2 C-terminal 12 aa] f

What do you get for VSKMDCDPLTVA [NIF3 C-terminal 12 aa] ? f

* * *

- System: Saccharomyces cerevisiae
- method-summary: protein stability index of tFT-peptide fusion (C-terminal peptide) (PSI (0-1 scale)); higher = more stable (slower turnover)
- assay-conditions: genetic background: wild type; temperature: 30 C
experimental-endpoint: protein stability index
Kindly provide the number alone.

Look over these answered cases.
primary-sequence: KKMKSKTKEINK
study-system: Saccharomyces cerevisiae
observed-value: 0.698
//
primary-sequence: NCMGLLMPLLIT
study-system: Saccharomyces cerevisiae
observed-value: 0.353
//
primary-sequence: LFIRSFLFFSHF
study-system: Saccharomyces cerevisiae
observed-value: 0.27
//
primary-sequence: RGVIKNKIKRLK
study-system: Saccharomyces cerevisiae
observed-value: 0.768
//
primary-sequence: KNRENNTKIEIQ
study-system: Saccharomyces cerevisiae
observed-value: 0.661
//
primary-sequence: GGGGGGVRVARW
study-system: Saccharomyces cerevisiae
observed-value: 0.687

Give its protein stability index value. Item: PLAGLWPCRSGS 0.669
